Entry source: ChEMBL document CHEMBL2062503

# Study System: Casein kinase II subunit alpha (Homo sapiens, UniProt P68400)
# Sequence (P68400 whole entry): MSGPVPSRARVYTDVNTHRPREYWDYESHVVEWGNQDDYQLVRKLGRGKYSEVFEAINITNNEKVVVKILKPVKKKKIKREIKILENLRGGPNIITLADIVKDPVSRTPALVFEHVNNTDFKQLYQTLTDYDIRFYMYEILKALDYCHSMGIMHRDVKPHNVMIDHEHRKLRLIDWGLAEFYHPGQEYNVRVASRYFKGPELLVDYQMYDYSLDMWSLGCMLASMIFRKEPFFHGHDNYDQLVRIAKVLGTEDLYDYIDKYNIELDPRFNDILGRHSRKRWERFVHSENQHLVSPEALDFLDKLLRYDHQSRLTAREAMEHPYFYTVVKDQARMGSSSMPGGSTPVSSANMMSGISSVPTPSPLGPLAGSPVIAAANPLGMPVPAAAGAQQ
# Experiment Notes: Inhibition of CK2alpha in human HCT116 cells assessed as decrease in AKT phosphorylation at S129 residue after 3 to 24 hrs
Value Kind: IC50 (nM)

A. CC(=O)Nc1ccc2ccn(-c3cc(NCCCN(C)C)n4ncc(C#N)c4n3)c2c1
B. CC(=O)Nc1ccc2[nH]cc(-c3cc(NC4CC4)n4ncc(C#N)c4n3)c2c1
C. CC(=O)N(C)c1ccc2ccn(-c3cc(NC4CC4)n4ncc(C#N)c4n3)c2c1
**Query** Lab note: order the above by reported IC50, lowest first, highest last. The response must list the labels following the requested ordering.
**Result** C, B, A
(C: 34 nM, B: 77 nM, A: 1200 nM)

====

# Experiment Notes: Intrinsic clearance in rat liver microsomes
# Type: ADME, Microsome
# Condition Info: read-out: CLH
Value Kind: CLint scaled (mL/min/kg)
I only need the number, in mL/min/kg, no unit after it.

**Query** Requested field: CLint scaled. Item: CC(=O)N(C)c1ccc2ccn(-c3cc(NC4CC4)n4ncc(C#N)c4n3)c2c1
**Result** 100

====

# Study System: Cyclin-dependent kinase 2 (Homo sapiens)
# Experiment Notes: Inhibition of CDK2
Value Kind: IC50 (µM)

a. CC(=O)Nc1ccc2ccn(-c3cc(NC4CC4)n4ncc(C#N)c4n3)c2c1
b. CC(=O)Nc1ccc2[nH]cc(-c3cc(NC4CC4)n4ncc(C#N)c4n3)c2c1
**Query** Please state the entry with greater IC50 among a and b . Choose, then provide that item's label.
**Result** a

====

# Study System: Cytochrome P450 1A2 (Homo sapiens, UniProt P05177)
# Sequence (P05177 whole entry): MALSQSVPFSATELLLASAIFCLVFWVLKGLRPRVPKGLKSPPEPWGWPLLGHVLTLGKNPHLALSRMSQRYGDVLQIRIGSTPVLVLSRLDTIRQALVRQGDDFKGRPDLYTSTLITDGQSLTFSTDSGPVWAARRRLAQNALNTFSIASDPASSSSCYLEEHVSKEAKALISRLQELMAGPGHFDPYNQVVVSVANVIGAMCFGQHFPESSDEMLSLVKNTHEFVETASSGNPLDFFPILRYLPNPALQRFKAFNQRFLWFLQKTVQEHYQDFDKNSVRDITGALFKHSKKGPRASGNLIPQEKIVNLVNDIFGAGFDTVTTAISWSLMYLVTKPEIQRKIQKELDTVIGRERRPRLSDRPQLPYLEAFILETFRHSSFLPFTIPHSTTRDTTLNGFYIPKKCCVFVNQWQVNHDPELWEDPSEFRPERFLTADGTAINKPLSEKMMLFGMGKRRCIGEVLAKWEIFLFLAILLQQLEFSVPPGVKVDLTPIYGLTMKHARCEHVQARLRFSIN
# Experiment Notes: Inhibition of CYP1A2
# Assay type: ADME
Value Kind: pIC50
Value format note: pIC50 is -log10 of concentration (mol/L); just state the number.

**Query** # get_value(readout= pIC50, system= Cytochrome P450 1A2 (Homo sapiens, UniProt P05177)) for CC(=O)Nc1ccc2ccn(-c3cc(NC4CC4)n4ncc(C#N)c4n3)c2c1
**Result** 7.00

====

# Experiment Notes: Fraction unbound in human plasma
# Type: ADME, cell-free
Value Kind: fraction unbound

Previously resolved entries follow.
[
  {
    "Smiles Input": "CC(=O)Nc1ccc2ccn(-c3cc(NCCN4CCOCC4)n4ncc(C#N)c4n3)c2c1",
    "fraction unbound": 0.11
  },
  {
    "Smiles Input": "CC(=O)Nc1ccc2ccn(-c3cc(NC4COC4)n4ncc(C#N)c4n3)c2c1",
    "fraction unbound": 0.124
  }
]

a. CC(=O)Nc1ccc2ccn(-c3cc(NCCCN(C)C)n4ncc(C#N)c4n3)c2c1
b. CS(=O)(=O)Cc1ccc2ccn(-c3cc(NC4CC4)n4ncc(C#N)c4n3)c2c1
**Query** Returns: the argument ( a or b ) having the larger fraction unbound. Returns: label corresponding to the selected item.
**Result** a

====

# Experiment Notes: Aqueous solubility of the compound
# Assay type: physicochemical
# Condition Info: buffer
Value Kind: solubility (µM)

Please review the following examples before continuing.
[
  {
    "Smiles Input": "CC(=O)Nc1ccc2ccn(-c3cc(NCCN4CCOCC4)n4ncc(C#N)c4n3)c2c1",
    "Value Kind": "solubility",
    "Numeric Result": 2
  },
  {
    "Smiles Input": "CC(=O)Nc1ccc2ccn(-c3cc(NC4COC4)n4ncc(C#N)c4n3)c2c1",
    "Value Kind": "solubility",
    "Numeric Result": 1
  },
  {
    "Smiles Input": "CC(=O)Nc1ccc2ccn(-c3cc(NCCCN(C)C)n4ncc(C#N)c4n3)c2c1",
    "Value Kind": "solubility",
    "Numeric Result": 750
  }
]

1. CC(=O)Nc1ccc2ccn(-c3cc(NCCN4CCCC4)n4ncc(C#N)c4n3)c2c1
2. CC(=O)Nc1ccc2ccn(-c3cc(NCCCCO)n4ncc(C#N)c4n3)c2c1
**Query** For the pair 1 and 2 , which entry has the numerically smaller recorded solubility? Field: selected label. Fill in the label of the entry you choose.
**Result** 2

====

# Experiment Notes: Fraction unbound in human plasma
# Type: ADME, cell-free
Value Kind: fraction unbound

[
  {
    "Smiles Input": "CC(=O)Nc1ccc2ccn(-c3cc(NCCN4CCCC4)n4ncc(C#N)c4n3)c2c1",
    "Value Kind": "fraction unbound",
    "Numeric Result": 0.056
  }
]

A. CC(=O)Nc1ccc2ccn(-c3cc(NCCCN4CCCC4)n4ncc(C#N)c4n3)c2c1
B. N#Cc1cnn2c(NC3CC3)cc(-n3ccc4ccc(CO)cc43)nc12
C. CC(=O)Nc1ccc2ccn(-c3cc(NCCCCO)n4ncc(C#N)c4n3)c2c1
**Query** List these items ordered by fraction unbound, big to small. Please list each label once, in the requested order.
**Result** A, C, B

====

# Study System: Casein kinase II subunit alpha (Homo sapiens, UniProt P68400)
# Experiment Notes: Inhibition of full length N-terminus His-tagged human CK2alpha expressed in insect Sf21 cells using BODIPY-FL-RRRDDDSDDD-CONH2 as substrate after 20 mins
pIC50: −log10 of the molar value.
Value Kind: pIC50

Recorded pIC50, per entry:
[
  {
    "Smiles Input": "CC(=O)Nc1ccc2ccn(-c3cc(NCCCN(C)C)n4ncc(C#N)c4n3)c2c1",
    "Study System": "Casein kinase II subunit alpha (Homo sapiens, UniProt P68400)",
    "pIC50": 7.52
  },
  {
    "Smiles Input": "CC(=O)Nc1ccc2cnn(-c3cc(NC4CC4)n4ncc(C#N)c4n3)c2c1",
    "Study System": "Casein kinase II subunit alpha (Homo sapiens, UniProt P68400)",
    "pIC50": 7.59
  }
]

P. CC(=O)N(C)c1ccc2ccn(-c3cc(NC4CC4)n4ncc(C#N)c4n3)c2c1
Q. CC(=O)Nc1ccc2[nH]cc(-c3cc(NC4CC4)n4ncc(C#N)c4n3)c2c1
**Query** # compare pIC50 for P vs Q ; return the one with the smaller value Indicate your choice by writing its label.
**Result** P
(P: 7.96, Q: 8.30)

====

# Study System: Cyclin-dependent kinase 2 (Homo sapiens)
pIC50: −log10 of the molar value.
As shown below, each of these molecules has a reported pIC50 value.

[
  {
    "Smiles Input": "CC(=O)Nc1ccc2ccn(-c3cc(NCCCN(C)C)n4ncc(C#N)c4n3)c2c1",
    "Value Kind": "pIC50",
    "Result": "< 4.52"
  }
]

**Query** For Cyclin-dependent kinase 2 (Homo sapiens), provide pIC50 of CC(=O)Nc1ccc2cnn(-c3cc(NC4CC4)n4ncc(C#N)c4n3)c2c1 please.
**Result** < 4.52

**Query** # get_value(readout= pIC50, system= Cyclin-dependent kinase 2 (Homo sapiens)) for CC(=O)Nc1ccc2c(c1)c(-c1cc(NC3CC3)n3ncc(C#N)c3n1)cn2CCC(=O)O
**Result** < 4.52

====

# Experiment Notes: Aqueous solubility of the compound
# Format: physicochemical
# Condition Info: buffer
Entries annotated with measured solubility

[
  {
    "Smiles Input": "N#Cc1cnn2c(NC3CC3)cc(-n3ccc4ccc(CO)cc43)nc12",
    "Value Kind": "solubility",
    "Result": "< 1 µM"
  }
]

**Query** Consider the compound CC(=O)Nc1ccc2ccn(-c3cc(NCCCN4CCCC4)n4ncc(C#N)c4n3)c2c1 and give its measured solubility.
**Result** > 1000 µM

**Query** Would you kindly share the measured solubility for CS(=O)(=O)Cc1ccc2ccn(-c3cc(NC4CC4)n4ncc(C#N)c4n3)c2c1 ?
**Result** < 1 µM

**Query** For the compound CC(=O)Nc1ccc2ccn(-c3cc(NC4CC4)n4ncc(C#N)c4n3)c2c1 , what solubility is on record?
**Result** < 10 µM

**Query** Quick one: solubility for CC(=O)N(C)c1ccc2ccn(-c3cc(NC4CC4)n4ncc(C#N)c4n3)c2c1 ?
**Result** < 1 µM
